# Test system: PTEN (lipid phosphatase activity) in human colon cancer cell line SW620
# test_summary: cells
# Assay type: cell-based
# applied_conditions: Homo sapiens, SW-620, 48 h, compound 5 μM, PTEN immunoprecipitation, diC8-PIP3 substrate, Biomol Green, read-out: PTEN activity (relative fold @5 μM)
reported_property: fold induction at 5 µM
In your answer, state the number alone without any accompanying words.

Qu. # get_value(readout='fold induction at 5 µM', item= Cc1[nH]c2ccc(CN3CCN(C(=O)NCc4nccs4)CC3)cc2c1C )
Ans. 2.2

Qu. # get_value(readout='fold induction at 5 µM', item= O=C(NCc1nc2cc(F)c(F)cc2[nH]1)C1CCN(Cc2c[nH]c3ccc(F)cc23)CC1 )
Ans. 1.6

Qu. # get_value(readout='fold induction at 5 µM', item= O=C(Nc1ccc(C(F)(F)F)cc1)N1CCN(Cc2ccc3[nH]ccc3c2)CC1 )
Ans. 1.8

Qu. # get_value(readout='fold induction at 5 µM', item= O=C(NCc1nccs1)C1CCN(Cc2ccc3[nH]ccc3c2)CC1 )
Ans. 2.5
